# Assay target: PDZRN4_1, Q6ZMN7
# Sequence (Q6ZMN7 213-318): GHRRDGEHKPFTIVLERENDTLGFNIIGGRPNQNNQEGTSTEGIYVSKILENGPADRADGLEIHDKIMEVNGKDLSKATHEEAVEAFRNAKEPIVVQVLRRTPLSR
# Measurement description: holdup assay
# Design: key: below the threshold = too weak to quantify, mostly under pKd 3.1 to 4
# Assay conditions: plain residues with an end cap or a label only (N-terminal biotin on a linker: ado-ado)
Experimental endpoint: pKd

NHSSSPETTA [TRMT13, Q9NUP7] = below the threshold
LPHPHSTTRV [NLGN2, Q8NFZ4] = below the threshold
SAAKVLTSMC [GHRHR, Q02643] = below the threshold

Entry source: paper PMC9482650
